Tested on: CP256
assay_text: qHTS profiling for inhibitors of Plasmodium falciparum proliferation (AID 504749); also: nearly all actives have a fitted effect of over 60% in size
condition: P. falciparum in erythrocytes, SYBR Green DNA, 72 h; series mostly up to 12.8 µM
Experimental: NIH National Institute of Allergy and Infectious Diseases [NIAID] NIH Chemical Genomics Center [NCGC] […] Because mature erythrocytes lack DNA, only Plasmodium-derived DNA is detected. NCGC Assay Protocol Summary: The SYBR Green viability assay was adapted from a method described previously (Plouffe et al., 2008). […] The following morning, fluorescence intensity at 485(14) nm excitation and 535(25) nm emission wavelengths was measured on an EnVision (Perkin Elmer) plate reader. […]
Results filed as inconclusive are left out. Activity calls are given as the source filed them. Calls follow the shape of the dose curve; as a rule, active = well fitted inhibition curve with a large enough effect; inconclusive = small, poorly fitted or top-dose-only effect; inactive = flat fitted curve, though single readings scatter. Peptide text beside a SMILES is read from it.
Pick one and only one: label 1 for active, label 0 for inactive

Cc1ccc2c(c1)c1c3n2CCN[C@H]3CCC1
label 0
CCC(CCC(C)C1CCC2C3CC=C4CC(O)CC[C@@]4(C)C3CC[C@@]12C)C(C)C (some centres undefined)
label 0
C=CC1=C(C(=O)O)N2C(=O)[C@@H](NC(=O)/C(=N\OCC(=O)O)c3csc(N)n3)[C@@H]2SC1
label 0
C[C@H](CCC(=O)O)[C@H]1CC[C@@H]2[C@@H]3[C@@H](O)C[C@H]4C[C@@H](O)CC[C@@]4(C)[C@H]3CC[C@@]21C
label 0

Prompt: Assay outcome for NC(C(=O)O)[C@@H]1CC(Cl)=NO1 (some centres undefined) : what was it?
Completion: label 1

Prompt: Assay outcome for CN1CCC[C@@H](CC2c3ccccc3Sc3ccccc32)C1 : what was it?
Completion: label 0

Prompt: Assay outcome for COC(=O)C(Cc1ccccc1)NC(=O)C(N)CC(=O)O (stereo not drawn) (H-Asp-Phe-OMe; configuration not given here) : what was it?
Completion: label 0

Prompt: Assay outcome for CCC(C)C(=O)OC1CC(O)C=C2C=CC(C)C(CCC(O)CC(O)CC(=O)O)C21 (centres undefined) : what was it?
Completion: label 0

Prompt: Assay outcome for CNC1CC(N)[C@H](O)[C@@H](O[C@@H]2OC(CO)C3OC4(OC(C(N)CO)C(O)C(O)C4O)O[C@@H]3[C@H]2O)C1O (some centres undefined) : what was it?
Completion: label 0
